- Assay Details: Stability in phosphate buffer at pH 7.4 at 37 degC at 100 uM after 72 hrs
- Format: physicochemical
- Assay Setup: phosphate buffer, pH 7.4; read-out: Stability
The following compounds are shown together with reported remaining at 72 h, 100 µM values.
Endpoint Name: remaining at 72 h, 100 µM

>>> print(df.to_string())
                                   compound  data_value
0  Nc1ccn([C@@H]2O[C@H](COP3(=O)OCC[C@H](c4ccncc4)O3)[C@@H](O)[C@@H]2O)c(=O)n1 (stereo in doubt; 19R)       > 97%
1  Nc1ccn([C@@H]2O[C@H](COP3(=O)OCC[C@H](c4cc(Cl)cc(Cl)c4)O3)[C@@H](O)[C@@H]2O)c(=O)n1 (stereo partly drawn)         76%
2  Nc1ccn([C@@H]2O[C@H](COP3(=O)OCC[C@@H](c4ccncc4)O3)[C@@H](O)[C@@H]2O)c(=O)n1 (stereo partly drawn)       > 95%
